# Test system: UACC-257 melanoma
# test_method_notes: NCI tumour cell line growth inhibition, 48 h
readout_kind: TGI

[[record]]
compound = "Oc1ccc2c(c1)OCC1(O)Cc3cc(O)c(O)cc3C21 (stereo not given)"
target_or_test_system = "UACC-257 melanoma"
readout_kind = "TGI"
measured_value = "34.4 µM"

[[record]]
compound = "CC(=O)OC1COC(n2nc(N)nc2C)C(OC(C)=O)C1OC(C)=O (stereo not given)"
target_or_test_system = "UACC-257 melanoma"
readout_kind = "TGI"
measured_value = "> 100 µM"

[[record]]
compound = "COc1ccc(NC(=S)N/N=C(\\c2ccccc2)c2ccccn2)cc1"
target_or_test_system = "UACC-257 melanoma"
readout_kind = "TGI"
measured_value = "2.44 µM"

[[record]]
compound = "CS(=O)(=O)Nc1ccc2c(c1)N(S(C)(=O)=O)CC2COS(C)(=O)=O (stereo not given)"
target_or_test_system = "UACC-257 melanoma"
readout_kind = "TGI"
measured_value = "> 100 µM"

[[record]]
compound = "CCOC(=O)c1cc2c([nH]1)c(OC(C)=O)cc1c2ccn1Cc1ccccc1"
target_or_test_system = "UACC-257 melanoma"
readout_kind = "TGI"
measured_value = "> 100 µM"

[[record]]
compound = "C=C1C(=O)C23CC1CCC2C12CO[C@H](O)[C@H]1C(C)(C)[C@H](OC(C)=O)C[C@H]2OC3=O (stereo not given in full)"
target_or_test_system = "UACC-257 melanoma"
readout_kind = "TGI"
measured_value = "> 100 µM"

[[record]]
compound = "CN(C)C(=S)/N=c1\\ssc(=Nc2ccccc2)n1C"
target_or_test_system = "UACC-257 melanoma"
readout_kind = "TGI"
measured_value = "> 100 µM"

[[record]]
compound = "CC1(C)OCC[C@@H]1[Si](C)(C)C"
target_or_test_system = "UACC-257 melanoma"
readout_kind = "TGI"
measured_value = "> 100 µM"

[[record]]
compound = "CCCCC1(C2c3ccccc3Oc3ccccc32)C(=O)N(c2ccccc2)N(c2ccccc2)C1=O"
target_or_test_system = "UACC-257 melanoma"
readout_kind = "TGI"
measured_value = "99 µM"

[[record]]
compound = "CC(C)OP(=O)(OC(C)C)/C(F)=N/Nc1ccc([N+](=O)[O-])cc1"
target_or_test_system = "UACC-257 melanoma"
readout_kind = "TGI"
measured_value = "> 100 µM"

[[record]]
compound = "CN(C)c1nc2n(CCO)ccnc-2c(=O)n1"
target_or_test_system = "UACC-257 melanoma"
readout_kind = "TGI"
measured_value = "> 100 µM"

[[record]]
compound = "CCSC1=CC(Cc2ccc(OC)cc2)N(C(=O)OC)C1 (stereo not given)"
target_or_test_system = "UACC-257 melanoma"
readout_kind = "TGI"
measured_value = "> 100 µM"

[[record]]
compound = "O=C(Nc1ccccc1SC(/C=C/NNC1=NC(c2ccccc2)C(c2ccccc2)=NN1)c1ccccc1)c1ccc(Cl)cc1Cl (stereo not given)"
target_or_test_system = "UACC-257 melanoma"
readout_kind = "TGI"
measured_value = "> 100 µM"

[[record]]
compound = "COc1cc(C(=O)O[C@H]2CCC3CCC2N3C)cc(OC)c1OC (stereo not given in full)"
target_or_test_system = "UACC-257 melanoma"
readout_kind = "TGI"
measured_value = "> 100 µM"

[[record]]
compound = "O=c1[nH]c(=O)n(C2CC(O)C(CO)O2)cc1/C=C/Br (stereo not given)"
target_or_test_system = "UACC-257 melanoma"
readout_kind = "TGI"
measured_value = "> 100 µM"

[[record]]
compound = "CCOC(=O)c1cc(C)n(CN(CCO)Cn2nc(C(=O)OCC)cc2C)n1"
target_or_test_system = "UACC-257 melanoma"
readout_kind = "TGI"
measured_value = "> 100 µM"

[[record]]
compound = "CC(C)C(=O)NCC[C@@H](CNC(=O)OC(C)(C)C)NC(=O)OC(C)(C)C"
target_or_test_system = "UACC-257 melanoma"
readout_kind = "TGI"
measured_value = "> 100 µM"

[[record]]
compound = "CCC(=O)NC(Nc1ccccc1F)(C(F)(F)F)C(F)(F)F"
target_or_test_system = "UACC-257 melanoma"
readout_kind = "TGI"
measured_value = "> 100 µM"

[[record]]
compound = "CC(C)C(NCc1c2ccccc2[n+]([O-])c2ccccc12)C(=O)O (stereo not given)"
target_or_test_system = "UACC-257 melanoma"
readout_kind = "TGI"
measured_value = "> 100 µM"

[[record]]
compound = "CC(C)NC1(C(N)=O)CCN(Cc2ccccc2)CC1"
target_or_test_system = "UACC-257 melanoma"
readout_kind = "TGI"
measured_value = "> 100 µM"

[[record]]
compound = "COc1ccc(-c2onc(-c3ccc([N+](=O)[O-])cc3)c2C2=NCCCN2)cc1"
target_or_test_system = "UACC-257 melanoma"
readout_kind = "TGI"
measured_value = "> 100 µM"

[[record]]
compound = "NC(N)=N/N=C(\\c1ccc(F)cc1)c1ccc(C(F)(F)F)cc1"
target_or_test_system = "UACC-257 melanoma"
readout_kind = "TGI"
measured_value = "4.63 µM"

[[record]]
compound = "CC(CO)CCNc1ncnc2c1ncn2CCC(=O)O (stereo not given)"
target_or_test_system = "UACC-257 melanoma"
readout_kind = "TGI"
measured_value = "> 100 µM"

[[record]]
compound = "COc1ccc(/C=C(/C(=O)N2CCCCC2)c2cc(OC)c(OC)c(OC)c2)cc1"
target_or_test_system = "UACC-257 melanoma"
readout_kind = "TGI"
measured_value = "> 100 µM"

[[record]]
compound = "NCCSSC/C=C\\CSSCCN"
target_or_test_system = "UACC-257 melanoma"
readout_kind = "TGI"
measured_value = "> 100 µM"

[[record]]
compound = "COCCOc1nc(-c2ccccc2)nc2ccccc12"
target_or_test_system = "UACC-257 melanoma"
readout_kind = "TGI"
measured_value = "> 100 µM"

[[record]]
compound = "NC1(P(=O)(O)O)CCCCC1"
target_or_test_system = "UACC-257 melanoma"
readout_kind = "TGI"
measured_value = "> 100 µM"

[[record]]
compound = "NS(=O)(=O)c1ccc(N=Nc2c(O)[nH]c3ccc(Cl)cc23)cc1"
target_or_test_system = "UACC-257 melanoma"
readout_kind = "TGI"
measured_value = "> 25 µM"

[[record]]
compound = "CN(C)CCNc1ccc2nnn3c4ccc(O)cc4c(=O)c1c23"
target_or_test_system = "UACC-257 melanoma"
readout_kind = "TGI"
measured_value = "22.2 µM"

[[record]]
compound = "Cc1ccc(C(=O)N/N=C(\\N=Nc2cccc(C)c2)c2ccc(N(CCC#N)CCC#N)cc2C)cc1"
target_or_test_system = "UACC-257 melanoma"
readout_kind = "TGI"
measured_value = "> 100 µM"

[[record]]
compound = "c1ccc(P2c3ccccc3Nc3ccccc32)cc1"
target_or_test_system = "UACC-257 melanoma"
readout_kind = "TGI"
measured_value = "> 100 µM"

[[record]]
compound = "O=C1C(c2ccccc2)=[N+]([O-])c2ccc(Cl)cc21"
target_or_test_system = "UACC-257 melanoma"
readout_kind = "TGI"
measured_value = "46.8 µM"

[[record]]
compound = "CN1CCC(CN2c3ccccc3Sc3ccccc32)C1 (stereo not given)"
target_or_test_system = "UACC-257 melanoma"
readout_kind = "TGI"
measured_value = "24.4 µM"

[[record]]
compound = "N#CNC(=NCc1ccccc1)NCc1ccccc1"
target_or_test_system = "UACC-257 melanoma"
readout_kind = "TGI"
measured_value = "> 100 µM"

[[record]]
compound = "COc1cc2c3c(n(CCCN)c(=O)c2cc1OC)-c1ccc(N(C)C)cc1C3=O"
target_or_test_system = "UACC-257 melanoma"
readout_kind = "TGI"
measured_value = "48.3 µM"

[[record]]
compound = "O=C1C2=C(C(c3ccccc3)=C1c1ccccc1)c1ccccc1C1(c3ccccc3)C2=C(O)C(c2ccccc2)=C1c1ccccc1 (stereo not given)"
target_or_test_system = "UACC-257 melanoma"
readout_kind = "TGI"
measured_value = "> 100 µM"

[[record]]
compound = "CCOC(=O)CC1C(O)C(=O)N(C)C1c1ccccc1 (stereo not given)"
target_or_test_system = "UACC-257 melanoma"
readout_kind = "TGI"
measured_value = "> 100 µM"

[[record]]
compound = "CC(=O)Nc1ccc(C(=O)NN2C(=O)C(Cl)C2c2cc(Br)cc(Br)c2O)cc1 (stereo not given)"
target_or_test_system = "UACC-257 melanoma"
readout_kind = "TGI"
measured_value = "> 100 µM"

[[record]]
compound = "NC(=O)CC(N)C(N)=O (stereo not given)"
target_or_test_system = "UACC-257 melanoma"
readout_kind = "TGI"
measured_value = "> 100 µM"

[[record]]
compound = "S=C1Nc2cnc3ccccc3c2SC1c1ccccc1 (stereo not given)"
target_or_test_system = "UACC-257 melanoma"
readout_kind = "TGI"
measured_value = "> 100 µM"

[[record]]
compound = "CCOC(=O)C1C(c2ccc3c(c2)OCO3)c2c([nH][nH]c2=O)CC1(O)OCC (stereo not given)"
target_or_test_system = "UACC-257 melanoma"
readout_kind = "TGI"
measured_value = "> 100 µM"

[[record]]
compound = "Cc1ccc2c(/C=C/c3ccc(N(C)C)cc3)ccnc2c1C"
target_or_test_system = "UACC-257 melanoma"
readout_kind = "TGI"
measured_value = "> 100 µM"

[[record]]
compound = "Cc1cccc(-n2cnc3cc(C(=O)N4CCCCC4)ccc32)c1"
target_or_test_system = "UACC-257 melanoma"
readout_kind = "TGI"
measured_value = "> 100 µM"

[[record]]
compound = "COc1cc(Br)c(CC2C3=C(CCN2C(=O)C2CCC2)CC2(CC3)OCCO2)cc1O (stereo not given)"
target_or_test_system = "UACC-257 melanoma"
readout_kind = "TGI"
measured_value = "> 100 µM"

[[record]]
compound = "O=Cc1cn(Cc2ccccc2)c2ccccc12"
target_or_test_system = "UACC-257 melanoma"
readout_kind = "TGI"
measured_value = "19.5 µM"

